Where do the numbers come from? From PubChem BioAssay (NCI).

Tested on: TK-10 renal
method.summary: NCI tumour cell line growth inhibition, 48 h
result.type: TGI

get_value(item= COc1cccc(-c2cc(=O)c3c(C)cc(C)nc3[nH]2)c1 , readout=TGI) returns > 100 µM

get_value(item= COc1ccc2c(CCCC(c3ccccc3)c3ccccc3)c3[n+](cc2c1OC)CCc1cc2c(cc1-3)OCO2 , readout=TGI) returns 1.29 µM

get_value(item= CC(C)(C)C1=Cc2cc3cc(C(C)(C)C)[nH]c(=O)c3cc2S(=O)(=O)N1 , readout=TGI) returns 88.3 µM

get_value(item= CCOC1CC(=O)c2c(Br)sc(Br)c21 (stereo unspecified) , readout=TGI) returns 46.4 µM

get_value(item= C=C(Cl)/C(=C\Cl)CCC(Br)C(C)C (stereo unspecified) , readout=TGI) returns > 100 µM

get_value(item= Cc1occc1C(=S)Nc1ccc(Cl)c(COC(C)(C)C)c1 , readout=TGI) returns 34.8 µM

get_value(item= Nn1c(CCCCCCCCc2nnc(COc3c(O)ccc4ccccc34)n2N)nnc1COc1c(O)ccc2ccccc12 , readout=TGI) returns > 100 µM

get_value(item= CC(=O)NS(=O)(=O)c1ccc(NC(=O)c2c3ccccc3nc3ccccc23)cc1 , readout=TGI) returns > 100 µM

get_value(item= Cc1ccc2c(ccc3c[n+]4c5ccccc5ccc4n32)c1 , readout=TGI) returns 25.1 µM

get_value(item= CCOC(=O)c1[nH]cc(C)c1-c1ccn(-c2ccccc2)c1 , readout=TGI) returns > 100 µM

get_value(item= CCOC(=O)C1=C(C)N(Cc2ccccc2)C(C)=C(C(=O)OCC)C1c1ccccc1O , readout=TGI) returns > 100 µM

get_value(item= C=C1C(=O)O[C@H]2[C@H]1CC/C(COC(=O)NCc1ccccc1OC)=C\CC[C@@]1(C)O[C@@H]21 , readout=TGI) returns 3.48 µM

get_value(item= CCC(=O)OC[n+]1ccc2c(C)c3[nH]c4ccc(OC)cc4c3c(C)c2c1 , readout=TGI) returns 2.92 µM

get_value(item= Oc1ccc(-c2nnc3sc(-c4ccc(F)cc4)nn23)cc1 , readout=TGI) returns > 100 µM

get_value(item= COc1cc(/C=C2\C(=O)N(C(=O)Cc3ccccc3)N=C2C)ccc1O , readout=TGI) returns > 100 µM

get_value(item= CN(C)S(=O)(=O)c1ccc(NC(=O)COC(=O)c2ccc(S(=O)(=O)N3CCCCC3)cc2)cc1 , readout=TGI) returns > 100 µM

get_value(item= CC(C)C(=O)Nc1nc2nc[nH]c2c(=O)[nH]1 , readout=TGI) returns > 100 µM

get_value(item= CCC(C(=O)O)c1ccc(OCc2ccccc2)cc1 (stereo unspecified) , readout=TGI) returns > 100 µM

get_value(item= CCCCn1c2c(n(CCCC)c1=S)-c1c(n(CCCC)c(=S)n1CCCC)S[Se][Se]S2 , readout=TGI) returns 30.5 µM

get_value(item= CCCC[C@H](NC(=O)[C@H]1CCCN1C)C(=O)N(C)[C@H](C[C@@H](OC(C)=O)c1nc(C(=O)N[C@@H](Cc2ccccc2)C[C@H](C)C(=O)OCC)cs1)C(C)C , readout=TGI) returns > 33.3 µM

get_value(item= CCCCCCCCCCCCOC(=S)NCCCC , readout=TGI) returns > 100 µM

###

System: DU-145 prostate
method.summary: NCI tumour cell line growth inhibition, 48 h
result.type: TGI

get_value(item= CCCCOc1ccc(NC(N)=Nc2ccc(Cl)cc2)cc1 , readout=TGI) returns 13.6 µM

get_value(item= CN(C)c1ccc(-c2c(C#N)c(S)n(NS(=O)(=O)c3ccccc3)c(=O)c2C#N)cc1 , readout=TGI) returns > 100 µM

get_value(item= O=C1CCSSCCC(=O)NCCN1 , readout=TGI) returns > 100 µM

get_value(item= C[C@H](Nc1ncnc2nc[nH]c12)c1cc2cccc(Cl)c2c(=O)n1-c1ccccc1 , readout=TGI) returns > 100 µM

get_value(item= COc1ccc2c(c1)O/C(=C\c1cccc(OCC(=O)Nc3nc4c(s3)CCCC4)c1)C2=O , readout=TGI) returns 19.7 µM

get_value(item= CCC1=CCC23C(=O)C=CC(=O)C2(C1)C(=O)c1cccc(OC)c1C3=O (stereo unspecified) , readout=TGI) returns 32.2 µM

get_value(item= c1ccc2c(c1)[nH]c1nc3cc(-c4ccc5nc6c(nc5c4)[nH]c4ccccc46)ccc3nc12 , readout=TGI) returns > 100 µM

get_value(item= COc1ccc(C(=O)/C=C/c2ccc(/C=C/c3cc(OC)c(OC)c(OC)c3)cc2)cc1 , readout=TGI) returns > 100 µM

get_value(item= COc1cc2c(cc1OC)C1c3ccccc3CCN1CC2 (stereo unspecified) , readout=TGI) returns > 100 µM

get_value(item= OC[C@@H](O)[C@H]1NC[C@@H](O)[C@H]1O , readout=TGI) returns > 100 µM

get_value(item= CCNC(=O)Nc1ccccn1 , readout=TGI) returns > 100 µM

###

Consider the following molecules; for each one, report its TGI.
Tested on: NCI-H23 lung
method.summary: NCI tumour cell line growth inhibition, 48 h

get_value(item= C=C(Cl)/C(=C\Cl)CCC(Br)C(C)C (stereo not drawn) , readout=TGI) returns > 100 µM

get_value(item= Cc1ccncc1.[O]=[Ge].[O]=[Ge].[O]=[Ge].[O]=[Ge].[O]=[Ge].[O]=[Ge][OH].[O]=[Ge][OH] , readout=TGI) returns > 100 µM

get_value(item= O=C(NC(Cc1c[nH]c2ccccc12)C(=O)O)/C(=C/c1ccccc1O)NC(=O)c1ccccc1 (stereo not drawn) , readout=TGI) returns > 100 µM

get_value(item= N#Cc1nc(-c2cc([N+](=O)[O-])cc([N+](=O)[O-])c2)oc1N , readout=TGI) returns > 10 µM

get_value(item= Cc1cc(N(CCC#N)S(=O)(=O)c2ccccc2)ccc1/C=C1N=C(/C=C/c2ccccc2)OC\1=O , readout=TGI) returns > 100 µM

get_value(item= CSCCC(NCc1c(O)ccc2c(-c3ccccc3)cc(=O)oc12)C(=O)O (stereo not drawn) , readout=TGI) returns > 100 µM

get_value(item= C=C1[C@@H](O)C[C@@]23CC[C@@H]4[C@@]5(C)CC[C@@H](OC(C)=O)C(C)(C)[C@@H]5C[C@@H](OC5OC(COC(C)=O)C(O)C(O)C5O)[C@@]4(C)C2=CC[C@H]3[C@H]1C (stereo partly drawn) , readout=TGI) returns 26.5 µM

get_value(item= O=C1c2ccccc2-c2c1c1ccccc1c(=O)n2CCCNCCCNCCCn1c2c(c3ccccc3c1=O)C(=O)c1ccccc1-2 , readout=TGI) returns 1.64 µM

###

Consider the following molecules; for each one, report its TGI.
System: HT29 colon
method.summary: NCI tumour cell line growth inhibition, 48 h
Kindly answer with a numeric value in µM, unit omitted.

get_value(item= Cc1cc(C)c2c(=O)n(CN3CC4Nc5ccccc5C4C3)sc2n1 (stereo not given) , readout=TGI) returns 46.1

get_value(item= COc1ccc2c(CCCC(c3ccccc3)c3ccccc3)c3[n+](cc2c1OC)CCc1cc2c(cc1-3)OCO2 , readout=TGI) returns 1.17

###

System: SK-MEL-2 melanoma
method.summary: NCI tumour cell line growth inhibition, 48 h; in the data active = GI50 below about 0.43 µM; inactive = the rest
Select the correct class. Options are active, inactive and nothing else.

Lookup: Which outcome was entered for the compound CC(C)(C)C#CC1=C(Br)C(=O)OC1 in this test?
Found: inactive

Lookup: Which outcome was entered for the compound COC(=O)[C@]12CC[C@@H](C)[C@H](C)[C@@H]1C1=CC[C@@H]3[C@@]4(C)C[C@@H](OC(C)=O)[C@H](O)[C@@](C)(COC(C)=O)[C@@H]4[C@H](O)C[C@@]3(C)[C@]1(C)CC2 in this test?
Found: inactive

Lookup: Which outcome was entered for the compound ClCCn1c(CCl)nc2ccc(Cl)cc21 in this test?
Found: inactive

Lookup: Which outcome was entered for the compound CCCCCn1c(=N)n(CC(O)COc2cccc(C)c2)c2ccccc21 (stereo not given) in this test?
Found: inactive

Lookup: Which outcome was entered for the compound C=CCc1c2c(c(OC)c3ccoc13)C(=O)/C(=C/c1ccccc1OC)O2 in this test?
Found: inactive

Lookup: Which outcome was entered for the compound C[C@H](Nc1ncnc2nc[nH]c12)c1cc2cccc(Cl)c2c(=O)n1-c1ccccc1 in this test?
Found: inactive

Lookup: Which outcome was entered for the compound CCCC[C@H](NC(=O)[C@H]1CCCN1C)C(=O)N(C)[C@H](C[C@@H](OC(C)=O)c1nc(C(=O)N[C@@H](Cc2ccccc2)C[C@H](C)C(=O)OCC)cs1)C(C)C in this test?
Found: active

Lookup: Which outcome was entered for the compound CN(CCCN)CCCNc1nc2ccccc2c2[nH]c3ccccc3c12 in this test?
Found: active

Lookup: Which outcome was entered for the compound COc1ccc(N2C(C)=C(C#N)C34C(=O)N(c5ccccc5)C(=O)C3=C(O)C=CC24O)cc1 (stereo not given) in this test?
Found: inactive

Lookup: Which outcome was entered for the compound Oc1ccc(-c2nnc3sc(-c4ccc(F)cc4)nn23)cc1 in this test?
Found: inactive
